Biological target: HLA-A*02:12
Assay: IEDB peptide-MHC binding, purified MHC/direct/fluorescence; filed as Kd, often an IC50 or EC50 that approximates it; bounds were set here for any values at or beyond the usual limits of such assays
Conditions: source organism: Bacillus cereus G9842
pKd: −log10 of the molar value.
readoutLabel: pKd

INPUT: Identify the reported pKd for the following entry. `MFKNFPFFK`
OUTPUT: ≤ 4.70

INPUT: Hello, please tell me recorded pKd for this one: `TQIPRQMVL`
OUTPUT: ≤ 4.70

----------
Kindly state pKd for each of the entries shown.
Molecular target: HLA-A*03:01
Assay: IEDB peptide-MHC binding, purified MHC/direct/fluorescence; filed as Kd, often an IC50 or EC50 that approximates it; bounds were set here for any values at or beyond the usual limits of such assays
Details: source organism: Giardia lamblia ATCC 50803
pKd: −log10 of the molar value.

INPUT: Tell us which pKd value is on record for `MLMFITSSH`
OUTPUT: 6.78

INPUT: Answer with the recorded pKd of `LERIKANIF` only.
OUTPUT: ≤ 4.70

INPUT: Using known records, supply pKd for `HSSVAGGLW`
OUTPUT: ≤ 4.70

INPUT: Please report the measured pKd for `IPRQWHPFA`
OUTPUT: ≤ 4.70

Each recorded value in this set is attributed to the Immune Epitope Database (IEDB).
